Here, each record is paired with measured melting point data.

{"compound": "CCCCCC1Cc2cc(OCC(=O)O)c(Cl)c(Cl)c2C1=O (stereo not drawn)", "melting point": "192 to 195 °C"}

I have this compound here, Cc1nnc(-c2ccc3occ(-c4ccc(OC(F)(F)F)cc4)c3c2)o1 , and I need its recorded melting point.
129 to 130 °C

Same question, COc1ccc2onc(CC(N)=NO)c2c1 this time
180 to 183 °C

Same question, Cc1ccc(N2CCCN(C(=O)OC(C)(C)C)CC2)cc1[N+](=O)[O-] this time
103 to 106 °C

###

Here, each record is paired with measured melting point data.

Previously resolved entries follow.
{"compound": "C=C(c1ccccc1)c1cccc(C(=NOCc2ccc(OCc3nc(-c4ccccc4)oc3C)cc2)C(=O)O)c1", "melting point": "171 to 172 °C"}
{"compound": "Cc1nc2cc(NC(=O)c3ccco3)ccc2o1", "melting point": "156 to 158 °C"}
{"compound": "CCC1SC(N(C)C(=O)NC)=NN1C(=O)C(C)(C)C (centres undefined)", "melting point": "144 to 146 °C"}

With those in mind, consider the next compound.
I have this compound here, CCOC(=O)CC(=O)Sc1cc(Cl)c(Cl)cc1Cl , and I need its recorded melting point.
41 to 43 °C

###

readout kind: melting point

{"compound": "Cc1cnc(N2CCC(c3ccc(S(N)(=O)=O)cc3)CC2)n1C", "melting point": "256 to 257 °C"}

I have this compound here, CC(C)(C)C(=O)CN1C(=O)C(NC(=O)Nc2cccc3ccccc23)CN(C2CCCCC2)c2ccccc21 (configuration not stated) , and I need its recorded melting point.
200 to 203 °C

Same question, COc1cc2ncnc(N3c4ccccc4CC3CO)c2cc1OC (configuration not stated) this time
146 to 147 °C

Same question, COCCOC(=O)C1=C(C)Nc2cc[nH]c(=O)c2C1c1ccccc1[N+](=O)[O-] (configuration not stated) this time
265 °C

Same question, CC(O)(CCBr)c1ccc(-c2cccc(F)c2)cc1 (configuration not stated) this time
72 to 74 °C

###

Here, each record is paired with measured melting point data.

Previously resolved entries follow.
{"molecule": "CCOC(=O)OC1=C(c2c(C)cc(C)cc2C)C(=O)SC12CCN(OC)CC2", "readout kind": "melting point", "data value": "87 to 89 °C"}
{"molecule": "Cc1ccc(-c2cc[nH]c2C=O)cc1", "readout kind": "melting point", "data value": "149 to 150 °C"}
{"molecule": "CC(=O)NCC1CN(c2ccc(N3CCN(C(=O)COC(=O)CO)CC3)c(F)c2)C(=O)O1 (stereo not given)", "readout kind": "melting point", "data value": "105 to 107 °C"}
{"molecule": "BrCc1cc(-c2ccccc2)cs1", "readout kind": "melting point", "data value": "87 to 88.5 °C"}
{"molecule": "CC(=O)NC1CCN(c2ccccn2)CC1", "readout kind": "melting point", "data value": "165 to 168 °C"}
{"molecule": "CCOC(=O)C(C)Oc1cc(-c2ccccc2)nc2ccccc12 (stereo not given)", "readout kind": "melting point", "data value": "80 °C"}
{"molecule": "CCOC(=O)c1cn(CCCl)c2nc(-c3ccncc3)c(F)cc2c1=O", "readout kind": "melting point", "data value": "192 to 194 °C"}
{"molecule": "CCOC(=O)c1cc(CCc2cc3c(s2)-n2c(C)nnc2CN=C3c2ccccc2Cl)ccc1CC(=O)Nc1cccc(/C=C/c2nc(C3CCC3)cs2)c1", "readout kind": "melting point", "data value": "118 to 120 °C"}
{"molecule": "O=c1ccc(-c2ccc(OCCCN3CCCCC3)nc2)n[nH]1", "readout kind": "melting point", "data value": "155 to 158 °C"}
{"molecule": "Cc1ccc(Cl)c(Nc2ccccc2-c2nnc(NC#N)o2)c1Cl", "readout kind": "melting point", "data value": "> 215 °C"}

I have this molecule here, CC[C@@H]1NC(=O)C[C@]1(C)O , and I need its recorded melting point.
87 to 111 °C

Same question, ICCCOc1ccc(OCCCI)cc1 this time
93 to 95 °C

Same question, CCc1cn(C2CC(O)(c3ccc(C)cc3)C(C(O)c3ccc(C)cc3)O2)c(=O)[nH]c1=O (stereo not given) this time
192 to 194 °C

Same question, CN(Cc1ccc(N)cc1)C1CCOCC1 this time
93 to 94 °C

Same question, c1ccc(C(Oc2ccc(-c3nc(COc4ccc(CCCn5ccnc5)cc4)co3)cc2)c2ccccc2)cc1 this time
106 to 107 °C

Same question, CCCC(=CC(=O)Nc1ccccc1)OC this time
104 °C

Same question, O=C(O)c1cc2cc(F)c(F)cc2nc1Cl this time
232 °C

Same question, CC(=O)N1CCCC2(Cc3ccc(Br)cc3)C(=O)N(c3cc(Cl)nc(Cl)c3)C(=O)N12 (stereo not given) this time
91 °C

Same question, COc1ccc(C2Sc3ccccc3N(CCN(C)C)C(=O)C2OC(=O)c2cccc([N+](=O)[O-])c2)cc1 (stereo not given) this time
178 to 180 °C

Same question, CN(C)c1ccc(Br)cn1 this time
39 to 41 °C

Same question, Cc1cc(-c2ccc(C#N)cc2)c(C)n1Cc1cnc(Cl)c(COC(=O)CCC(=O)O)c1 this time
201 to 204 °C

###

Here, each record is paired with measured melting point data.

{"input smiles": "CS(=O)(=O)Nc1ccc(-c2ccc(C(=O)O)c(=O)[nH]2)cc1", "melting point": "> 320 °C"}
{"input smiles": "CCOC(=O)c1ccc2c(c1)N(C(=O)c1ccccc1)Cc1ccccc1O2", "melting point": "149 to 150 °C"}

With those in mind, consider the next compound.
I have this compound here, O=c1ncc(Cl)cn1COCc1cnsn1 , and I need its recorded melting point.
106 °C

###

Here, each record is paired with measured melting point data.

{"molecule": "CC(O)=C(C#N)C(=O)Nc1ccccc1", "data value": "134 to 135 °C"}
{"molecule": "O=C(c1cccnc1)N1CCC(c2ccc(Cl)cc2)=N1", "data value": "125 to 126 °C"}
{"molecule": "CC(=O)OC(C(Oc1ccc(Cl)cc1)n1cncn1)C(C)(C)CCl (configuration not stated)", "data value": "111 to 117 °C"}
{"molecule": "NC(CC(=O)O)c1ccccc1[N+](=O)[O-] (configuration not stated)", "data value": "222 °C"}
{"molecule": "CC(=O)Nn1c2c(c3ccccc31)Cc1ccccc1-2", "data value": "> 240 °C"}

With those in mind, consider the next molecule.
I have this molecule here, CCOC(=O)Cn1nc(-c2cc(Cl)ccc2O)nc1-c1cc(Cl)ccc1O , and I need its recorded melting point.
195 to 200 °C

###

readout kind: melting point

I have this compound here, C#CCOC(=O)CCC(C)(c1ccc(O)cc1)c1ccc(O)cc1 , and I need its recorded melting point.
99.5 to 101 °C

Same question, CCOC(=O)Nc1cc(COC(=O)Nc2ccc(N(CCCl)CCCl)cc2)cc(Nc2c3ccccc3nc3ccccc23)c1 this time
178 to 182 °C

Same question, COc1ccc(C(C)C)cc1CN[C@H]1[C@H]2CCN(C[C@@H]2C(=O)NC(C)C(N)=O)[C@H]1C(c1ccccc1)c1ccccc1 (stereo not given in full) this time
243 to 245 °C

Same question, CCOC(Cc1ccc(OCCN2c3ccccc3Oc3ccccc32)cc1)C(=O)OC (stereo not given) this time
88 to 90 °C

Same question, CCOc1ccc(CCCOc2c(CC(=O)O)cccc2OC)c(Oc2ccc(Cl)cc2Cl)n1 this time
89 to 91 °C

Same question, Clc1csc(-c2cccnc2)n1 this time
84 to 86 °C

###

readout kind: melting point

Previously resolved entries follow.
{"molecule": "O=C1OC(CCCCN2CCN(c3ncccn3)CC2)CN1c1ccccc1 (stereo unspecified)", "data value": "94 to 96 °C"}
{"molecule": "CCN(CC)C(=O)C1(OC(=S)N(CC)CC)C=CC=NC1F (stereo unspecified)", "data value": "87 to 92 °C"}
{"molecule": "CC(C)n1cc(-c2nc(C(N)=O)c(N)nc2-c2cccc(Cl)c2)ccc1=O", "data value": "233 °C"}
{"molecule": "COc1ccc(C2(CNC(=O)Nc3c(C(C)C)cccc3C(C)C)CCCC2)cc1", "data value": "144 to 147 °C"}
{"molecule": "COC(=O)c1ccc(C(=O)N2CCCc3ccccc32)cc1", "data value": "72 to 74 °C"}

I have this molecule here, O=C(Nc1ccc(C2=CCN(C(=O)Nc3ccc(OCC(O)CO)cc3Cl)CC2)cc1)Nc1ccccc1F (stereo unspecified) , and I need its recorded melting point.
161 to 165 °C

###

Residues, ends and D or L forms follow the SMILES beside them. *: point of attachment. Cbz = O=C(OCc1ccccc1)*
readout kind: melting point

Previously resolved entries follow.
{"molecule": "Cc1noc(NS(=O)(=O)c2ccccc2-c2ccc(-c3ncco3)cc2CN(C)C(=O)c2ccc(Cl)cc2Cl)c1C", "melting point": "134 to 142 °C"}
{"molecule": "CC(=O)SCC(Cc1ccccc1)C(=O)Nc1cc(C(=O)O)ccc1O (centres undefined)", "melting point": "202 to 206 °C"}
{"molecule": "CN1C(=O)CCC2=C1CCc1ccc(F)cc12", "melting point": "122 °C"}
{"molecule": "CCc1cccc(CC)c1C(=O)Nc1nnc(C(C)(CC)CC)s1", "melting point": "186 to 188 °C"}
{"molecule": "CSc1noc(C2CC2)c1C(=O)c1ccc(C(F)(F)F)cc1S(C)(=O)=O", "melting point": "145 to 146 °C"}
{"molecule": "O=C1CCC(N2C(=O)c3cccc(CNC(=O)Nc4ccccn4)c3C2=O)C(=O)N1 (centres undefined)", "melting point": "> 260 °C"}
{"molecule": "COc1ccc(C(O)(CN2CCNC2=O)c2ccccc2)cc1OC (centres undefined)", "melting point": "154 °C"}
{"molecule": "CCCCc1c(OC)cc(C(=O)O)nc1Cl", "melting point": "104 to 106 °C"}

With those in mind, consider the next molecule.
I have this molecule here, C[C@H](NC(=O)OCc1ccccc1)C(=O)N1CCC[C@H]1C(=O)O (Cbz-Ala-Pro-OH) , and I need its recorded melting point.
124 to 125 °C
